Tested on: NCI-H23 lung
PROTOCOL NOTES: NCI tumour cell line growth inhibition, 48 h
PARAMETER: TGI (µM)

>>> df
                                   compound  lt_gt_eq  result_value
0  Cc1nc2cc(O)c(O)cc2cc1Oc1ccc(NC(=O)Nc2ccc(Cl)c(Cl)c2)cc1         =          19.6
1        NC(=O)c1cc2ccccc2c(N=Nc2ccccc2)c1O         >           100
2  Cc1c(Cl)cccc1NC(=O)C(=O)C1C(=O)NC(=O)NC1=O         >           100
3     Cc1ccc(Nc2ncnc3sc(SCc4ccccc4)nc23)cc1         >           100
4    Cn1cccc1-c1cc(-c2ccc(Br)cc2)nc(N)c1C#N         >           100
5  O=C(/C=C1\N=C(c2ccccc2)N(c2ccc3c(c2)Sc2cc(N4C(=O)/C(=C/C(=O)/C=C/c5ccccc5)N=C4c4ccccc4)ccc2N3)C1=O)/C=C/c1ccccc1         >           100
6                            NC(=O)NC(=O)CI         =            21
7  CN1CCN(c2ccc3nc(-c4ccc(OCCCN5C(=O)c6cccc7cccc(c67)C5=O)cc4)[nH]c3c2)CC1         =          55.9
8  O=C1NC(=NCc2ccccn2)S/C1=C\c1ccc2ncccc2c1         >            25
9  CC1(C)OC1CC/C(=C/CBr)CBr (stereo not given)         =          29.6
